# Test system: HEK-293T
# test.protocol: Cytotoxicity against HEK293T cells assessed as reduction in cell viability after 48 hrs by MTT assay
# Format: cell-based
# condition.summary: Homo sapiens
pIC50: −log10 of the molar value.
quantity: pIC50

>>> measured_number("Cc1nc(Oc2ccc3c(c2)NC(N)=C(C#N)C3c2ccc(F)cc2)cc(N2CCN(CCO)CC2)n1 (centres undefined)")
4.14
>>> measured_number("Cc1nc(Oc2ccc3c(c2)OC(N)=C(C#N)C3c2ccc([N+](=O)[O-])cc2)cc(N2CCN(CCO)CC2)n1 (centres undefined)")
3.98
>>> measured_number("Cc1nc(Oc2ccc3c(c2)NC(N)=C(C#N)C3c2ccc(Br)cc2)cc(N2CCN(CCO)CC2)n1 (centres undefined)")
4.21
>>> measured_number("Cc1nc(Oc2ccc3c(c2)OC(N)=C(C#N)C3c2ccc(Br)cc2)cc(N2CCN(CCO)CC2)n1 (centres undefined)")
4.72
>>> measured_number("Cc1nc(Oc2ccc3c(c2)OC(N)=C(C#N)C3c2ccc(Cl)cc2)cc(N2CCN(CCO)CC2)n1 (centres undefined)")
4.74
>>> measured_number("Cc1nc(Oc2ccc3c(c2)NC(N)=C(C#N)C3c2ccccc2C)cc(N2CCN(CCO)CC2)n1 (centres undefined)")
4.24
>>> measured_number("Cc1nc(Oc2ccc3c(c2)NC(N)=C(C#N)C3c2c(Cl)cccc2Cl)cc(N2CCN(CCO)CC2)n1 (centres undefined)")
4.21
>>> measured_number("COc1ccc(C2C(C#N)=C(N)Nc3cc(Oc4cc(N5CCN(CCO)CC5)nc(C)n4)ccc32)cc1 (centres undefined)")
4.21

----------
# Tested on: HEK-293T
# test.protocol: Cytotoxicity against HEK293T cells assessed as reduction in cell viability after 48 hrs by MTT assay
# Format: cell-based
# condition.summary: Homo sapiens
A collection of compounds and their measured IC50
quantity: IC50 (µM)

>>> measured_number("Cc1nc(Oc2ccc3c(c2)NC(N)=C(C#N)C3c2ccccc2)cc(N2CCN(CCO)CC2)n1 (stereo not drawn)")
141
>>> measured_number("Cc1nc(Oc2ccc3c(c2)OC(N)=C(C#N)C3c2ccccc2C)cc(N2CCN(CCO)CC2)n1 (stereo not drawn)")
56
>>> measured_number("Cc1nc(Oc2ccc3c(c2)OC(N)=C(C#N)C3c2ccc(F)cc2)cc(N2CCN(CCO)CC2)n1 (stereo not drawn)")
52
>>> measured_number("COc1cccc(C2C(C#N)=C(N)Nc3cc(Oc4cc(N5CCN(CCO)CC5)nc(C)n4)ccc32)c1 (stereo not drawn)")
39
>>> measured_number("Cc1nc(Oc2ccc3c(c2)OC(N)=C(C#N)C3c2c(Cl)cccc2Cl)cc(N2CCN(CCO)CC2)n1 (stereo not drawn)")
51
>>> measured_number("COc1ccc(C2C(C#N)=C(N)Oc3cc(Oc4cc(N5CCN(CCO)CC5)nc(C)n4)ccc32)cc1 (stereo not drawn)")
55

----------
A collection of molecules and their measured IC50
# System: HEK-293T
# test.protocol: Cytotoxicity against HEK293T cells assessed as reduction in cell viability after 48 hrs by MTT assay
# Type: cell-based
# condition.summary: Homo sapiens
quantity: IC50 (µM)

>>> measured_number("Cc1ccc(C2C(C#N)=C(N)Nc3cc(Oc4cc(N5CCN(CCO)CC5)nc(C)n4)ccc32)cc1 (centres undefined)")
140
>>> measured_number("Cc1nc(Oc2ccc3c(c2)NC(N)=C(C#N)C3c2ccccc2Cl)cc(N2CCN(CCO)CC2)n1 (centres undefined)")
70
>>> measured_number("Cc1nc(Oc2ccc3c(c2)OC(N)=C(C#N)C3c2ccccc2Cl)cc(N2CCN(CCO)CC2)n1 (centres undefined)")
79
>>> measured_number("Cc1nc(Oc2ccc3c(c2)NC(N)=C(C#N)C3c2ccc(Cl)cc2)cc(N2CCN(CCO)CC2)n1 (centres undefined)")
95
